System: Magnaporthe grisea (Pyricularia oryzae)
experimental details: microbe, parasite or virus in culture
Type: cell-based
experimental parameters: 72 h, read-out: control of Magnaporthe grisea
Here, each record is paired with measured inhibition of growth at 200 ppm data.

molecule	reported metric	val
CC(C)C(C)(Cc1ccccc1)NC(=O)c1cnc2c(F)cccc2c1 (stereo not shown)	inhibition of growth at 200 ppm	≥ 80%
CC(C)CC(C)(Cc1ccccc1)NC(=O)c1cnc2cc(Cl)ccc2c1 (stereo not shown)	inhibition of growth at 200 ppm	≥ 80%
CC(F)(F)C[C@](C)(Cc1ccccc1)NC(=O)c1cnc2c(F)cccc2c1	inhibition of growth at 200 ppm	≥ 80%

Proceeding to the next molecule to report its inhibition of growth at 200 ppm.
stdin: Using the record for C=CCC(C)(Cc1ccccc1)NC(=O)c1cnc2ccccc2c1 (stereo not shown) , report its inhibition of growth at 200 ppm.
stdout: ≥ 80%

###

reported metric: melting point

// solved cases for melting point follow
compound	melting point
Cc1c(C(=O)NC(C)(Cc2ccccc2)CC(F)(F)F)cnc2c(F)cccc12 (stereo not drawn)	154 to 158 °C
CC(C)(C)CC(Cc1ccccc1)NC(=O)c1cnc2c(F)cccc2c1 (stereo not drawn)	178 to 180 °C
CC(F)(F)CC(C)(Cc1ccccc1)NC(=O)c1cnc2ccccc2c1 (stereo not drawn)	131 to 133 °C
COc1ccc2cc(C(=O)NC(C)(Cc3ccccc3)CC(C)C)cnc2c1 (stereo not drawn)	136 to 138 °C
CC(C)CC(C)(Cc1ccccc1)NC(=O)c1cnc2cc(Cl)ccc2c1 (stereo not drawn)	172 to 174 °C

stdin: Using the record for Cc1cccc2cc(C(=O)NC(C)(Cc3ccccc3)CC(C)C)cnc12 (stereo not drawn) , report its melting point.
stdout: 132 to 133 °C

stdin: Using the record for CC(Cc1ccccc1)(CC(F)(F)F)NC(=O)c1cnc2cc(C#N)ccc2c1 (stereo not drawn) , report its melting point.
stdout: 172 to 174 °C

stdin: Using the record for Cc1ccccc1CC(C)(CC(C)C)NC(=O)c1cnc2c(F)cccc2c1 (stereo not drawn) , report its melting point.
stdout: 125 to 126 °C

stdin: Using the record for CC(C)CC(C)(Cc1ccc(Cl)cc1)NC(=O)c1cnc2c(F)cccc2c1 (stereo not drawn) , report its melting point.
stdout: 57 to 59 °C

###

System: Magnaporthe grisea (Pyricularia oryzae)
experimental details: microbe, parasite or virus in culture
Assay type: cell-based
experimental parameters: 72 h, read-out: control of Magnaporthe grisea
reported metric: inhibition of growth at 200 ppm

compound	inhibition of growth at 200 ppm
Cc1cccc(CC(C)(CC(C)C)NC(=O)c2cnc3c(F)cccc3c2)c1 (stereo not drawn)	≥ 80%

stdin: Using the record for CC(C)CC(C)(Cc1ccccc1)NC(=O)c1cnc2c(F)cccc2c1 (stereo not drawn) , report its inhibition of growth at 200 ppm.
stdout: ≥ 80%

stdin: Using the record for CC(Cc1ccccc1)(CC1CC1)NC(=O)c1cnc2c(F)cccc2c1 (stereo not drawn) , report its inhibition of growth at 200 ppm.
stdout: ≥ 80%

stdin: Using the record for CC1(CC(C)(Cc2ccccc2)NC(=O)c2cnc3c(F)cccc3c2)CC1 (stereo not drawn) , report its inhibition of growth at 200 ppm.
stdout: ≥ 80%

stdin: Using the record for CC(Cc1ccccc1)(CC(F)(F)F)NC(=O)c1cnc2cc(Cl)ccc2c1 (stereo not drawn) , report its inhibition of growth at 200 ppm.
stdout: ≥ 80%

stdin: Using the record for CC(C)CC(C)(Cc1ccc(Cl)cc1)NC(=O)c1cnc2c(F)cccc2c1 (stereo not drawn) , report its inhibition of growth at 200 ppm.
stdout: ≥ 80%

stdin: Using the record for CC(C)(F)CC(C)(Cc1ccccc1)NC(=O)c1cnc2ccccc2c1 (stereo not drawn) , report its inhibition of growth at 200 ppm.
stdout: ≥ 80%

stdin: Using the record for CC(Cc1ccc(F)cc1)(CC(F)(F)F)NC(=O)c1cnc2c(F)cccc2c1 (stereo not drawn) , report its inhibition of growth at 200 ppm.
stdout: ≥ 80%

stdin: Using the record for CC(C)CC(C)(Cc1ccccc1)NC(=O)c1cnc2cc(F)ccc2c1 (stereo not drawn) , report its inhibition of growth at 200 ppm.
stdout: ≥ 80%

###

Here, each record is paired with measured melting point data.

// solved cases for melting point follow
compound	melting point
CC(Cc1ccccc1F)(CC(F)(F)F)NC(=O)c1cnc2c(F)cccc2c1 (centres unmarked)	131 to 133 °C
CC(C)CC(Cc1ccccc1)NC(=O)c1cnc2c(F)cccc2c1 (centres unmarked)	136 to 139 °C
Cc1cccc2cc(C(=O)NC(C)(Cc3ccccc3)CC(F)(F)F)cnc12 (centres unmarked)	120 to 123 °C
Cc1c(C(=O)NC(C)(Cc2ccccc2)CC(C)C)cnc2c(F)cccc12 (centres unmarked)	92 to 94 °C
CC(C)(C)C(Cc1ccccc1)NC(=O)c1cnc2c(F)cccc2c1 (centres unmarked)	163 to 164 °C

stdin: Using the record for CC(C)CC(C)(Cc1cccc(Br)c1)NC(=O)c1cnc2c(F)cccc2c1 (centres unmarked) , report its melting point.
stdout: 87 to 89 °C

stdin: Using the record for CC(C)CC(C)(Cc1ccccc1)NC(=S)c1cnc2c(F)cccc2c1 (centres unmarked) , report its melting point.
stdout: 150 to 153 °C

stdin: Using the record for CC(Cc1ccccc1)(CC1CCC1)NC(=O)c1cnc2ccccc2c1 (centres unmarked) , report its melting point.
stdout: 88 to 90 °C

stdin: Using the record for CC(C)CC(C)(Cc1ccccc1)NC(=O)c1cnc2cccc(Cl)c2c1 (centres unmarked) , report its melting point.
stdout: 50 to 60 °C

###

Here, each record is paired with measured melting point data.

// solved cases for melting point follow
compound	val
CC(C)CC(C)(Cc1ccccc1Cl)NC(=O)c1cnc2c(F)cccc2c1 (centres unmarked) [Compound E-22]	109 to 110 °C
CC(C)CC(C)(Cc1cccc(Cl)c1)NC(=O)c1cnc2c(F)cccc2c1 (centres unmarked) [Compound E-27]	41 to 42 °C

stdin: Using the record for Cc1c(C(=O)NC(C)(Cc2ccccc2)CC(C)C)cnc2c(Cl)cccc12 (centres unmarked) [Compound E-107] , report its melting point.
stdout: 65 to 70 °C

###

Here, each record is paired with measured melting point data.

// solved cases for melting point follow
compound	reported metric	val
CC(C)CC(C)(Cc1ccccc1)NC(=O)c1cnc2c(C#N)cccc2c1 (centres unmarked)	melting point	160 to 162 °C
Cc1nc2c(C#N)cccc2cc1C(=O)NC(C)(Cc1ccccc1)CC(F)(F)F (centres unmarked)	melting point	136 to 140 °C
C=C(C)CC(C)(Cc1ccccc1)NC(=O)c1cnc2c(F)c(F)ccc2c1 (centres unmarked)	melting point	94 to 96 °C

stdin: Using the record for CC(C)CC(C)(Cc1ccccc1)NC(=O)c1cc2cccc(F)c2nc1Cl (centres unmarked) , report its melting point.
stdout: 106 to 108 °C

stdin: Using the record for CC(C)CC(C)(Cc1ccccc1C#N)NC(=O)c1cnc2c(F)cccc2c1 (centres unmarked) , report its melting point.
stdout: 43 to 44 °C

stdin: Using the record for CC(C)CC(C)(Cc1cccc(C#N)c1)NC(=O)c1cnc2c(F)cccc2c1 (centres unmarked) , report its melting point.
stdout: 45 to 46 °C

stdin: Using the record for CC(Cc1ccccc1)(CC(F)(F)F)NC(=O)c1cnc2c(Cl)c(F)ccc2c1 (centres unmarked) , report its melting point.
stdout: 150 to 152 °C

stdin: Using the record for CC(C)CC(C)(Cc1cccc(F)c1)NC(=O)c1cnc2c(F)cccc2c1 (centres unmarked) , report its melting point.
stdout: 45 to 47 °C

stdin: Using the record for CC(Cc1ccccc1)(CC1CCC1)NC(=O)c1cnc2c(F)cccc2c1 (centres unmarked) , report its melting point.
stdout: 125 to 127 °C

stdin: Using the record for CC(C)CC(C)(Cc1ccccc1F)NC(=O)c1cnc2c(F)cccc2c1 (centres unmarked) , report its melting point.
stdout: 105 to 106 °C

stdin: Using the record for CC(C)CC(C)(Cc1ccccc1)NC(=O)c1cnc2c(F)c(F)ccc2c1 (centres unmarked) , report its melting point.
stdout: 114 to 116 °C

stdin: Using the record for CC(C=C(F)F)(Cc1ccccc1)NC(=O)c1cnc2c(F)cccc2c1 (centres unmarked) , report its melting point.
stdout: 99 to 101 °C

stdin: Using the record for Cc1cccc2cc(C(=O)NC(CCC(F)(F)F)Cc3ccccc3)cnc12 (centres unmarked) , report its melting point.
stdout: 158 to 161 °C

stdin: Using the record for CC(Cc1ccccc1)(CC(F)(F)F)NC(=O)c1cnc2cc(Cl)ccc2c1 (centres unmarked) , report its melting point.
stdout: 174 to 176 °C

stdin: Using the record for CC(C#N)(Cc1ccccc1F)NC(=O)c1cnc2ccccc2c1 (centres unmarked) , report its melting point.
stdout: 134 to 139 °C

stdin: Using the record for CC(Cc1ccccc1)(CC(F)(F)F)NC(=O)c1cnc2c(F)cccc2c1 (centres unmarked) , report its melting point.
stdout: 158 to 160 °C

###

reported metric: melting point

// solved cases for melting point follow
molecule	melting point
Cc1cccc(CC(C)(CC(C)C)NC(=O)c2cnc3c(F)cccc3c2)c1 (stereo not shown)	94 to 96 °C
O=C(NC(Cc1ccccc1)CC(F)(F)F)c1cnc2c(F)cccc2c1 (stereo not shown)	140 to 142 °C
Cc1c(C(=O)NC(C)(Cc2ccccc2)CC(F)(F)F)cnc2c(Cl)cccc12 (stereo not shown)	184 to 186 °C
CC(C#N)(Cc1ccccc1Cl)NC(=O)c1cnc2c(F)cccc2c1 (stereo not shown)	198 to 203 °C
CC(C)(Cc1ccccc1OC(F)(F)F)NC(=O)c1cnc2ccccc2c1	145 to 149 °C
C=C(C)CC(C)(Cc1ccccc1)NC(=O)c1cnc2c(F)cccc2c1 (stereo not shown)	115 to 117 °C

stdin: Using the record for CC(Cc1ccccc1)(CC(F)(F)F)NC(=O)c1cnc2cccc(Cl)c2c1 (stereo not shown) , report its melting point.
stdout: 85 to 88 °C
